test system: SK-MEL-28 melanoma; test: NCI-60 one-dose screen, 48 h (100 = growth as untreated, 0 = no growth, -100 = all killed); settings: 10 µM unless noted
About 83,000 compounds went through this panel and 20% of them were active in at least one assay; those are over-represented in the sample as a whole.
Entries and their growth

{"columns": ["compound", "unitsText", "growth"],
 "data": [
  ["COP(=O)(OC)C(C)(C)CC(=O)CC(C#N)(C#N)C(C#N)C#N", "%", 104],
  ["COc1ccc(C/C(C)=C(/c2ccc(OCCN3CCCCC3)cc2)c2ccc(OC(=O)NCc3ccccc3)cc2)cc1", "%", -85.8],
  ["CCCc1cc(NC)nc(S(=O)(=O)CC)n1", "%", 106],
  ["CO[C@H]1/C=C(/C)CCC[C@H](C)[C@H](O)[C@@H](C)C(=O)C(C)(C)[C@@H](O)CC(=O)O[C@@H]1/C(C)=C/c1csc(C)n1", "%", 39.6],
  ["O=C(NNC(=O)c1ccc(-n2cc(-c3ccccc3)nn2)cc1)Nc1ccccc1", "%", 109],
  ["COc1cc(-c2nc(SCC(C)C)nc(Nc3cccc4ccccc34)c2C#N)cc(OC)c1OC", "%", 110],
  ["COC1C[C@H](O[C@@H]2C[C@H](O[C@@H]3C[C@H](O[C@@H]4C(=O)c5c(cc6cc(O[C@H]7C[C@@H](O[C@H]8C[C@@H](O)[C@H](O)C(C)O8)[C@H](O)C(C)O7)c(C)c(O)c6c5O)C[C@H]4C(OC)C(=O)[C@@H](O)[C@@H](C)O)OC(C)[C@H]3O)OC(C)[C@@H]2O)OC(C)[C@@H]1O (some centres not stated)", "%", -22.9],
  ["O=C(/C=C/c1ccc(Cl)cc1)c1cccc(Nc2nc(Nc3ccccc3)nc(Nc3ccccc3)n2)c1", "%", 100],
  ["COc1ccc(-c2cn(-c3cc(OC)c(OC)c(OC)c3)c(=O)n2C(C)=O)cc1", "%", 103],
  ["O=c1oc2ccccc2cc1C1=NN=C(SCc2ccccc2)SC1", "%", 109],
  ["COc1cccc([C@H]2c3[nH]c4ccccc4c3C[C@H]3C(=O)N(CCCCCCC(=O)NO)CC(=O)N23)c1", "%", 43],
  ["Cc1nn(-c2ccccc2)c(Oc2ccccn2)c1-c1nc2ccccc2s1", "%", 106],
  ["CCOC(=O)c1nc(Nc2ccc(NC(=O)Nc3ccc(F)cc3)cc2)c2ccccc2n1", "%", 105],
  ["O=C(NCCCN1CCOCC1)c1cccc(N2C(=O)/C(=C/c3ccc(F)cc3)SC2=S)c1", "%", 104],
  ["CS(=O)(=O)Nc1cc(-c2ccc3ncnc(Nc4ccc5c(cnn5Cc5ccccn5)c4)c3c2)cnc1Cl", "%", 56.1],
  ["CCCCOC(=O)OCc1cc(=O)c(O)co1", "%", 107],
  ["O=C(CSc1nnc2n1S(=O)(=O)c1ccccc1N2c1ccccc1)Nc1nc2ccc(F)cc2s1", "%", 117]
]}

* * *

Tested on: SF-539 CNS
Test: NCI-60 one-dose screen, 48 h
Conditions: 10 µM unless noted
Method: Cells are grown in 96 well plates and exposed to the test compound for 48 hours. Compounds are tested at a single concentration, which is 10^-5 M for most compounds. The reported endpoint is percent growth (GI% or GIPRCNT), where numbers from 0 - 100% represent growth inhibition, and numbers from -100% - 0 represent cell death. For example, a value of 40 represents 60% growth inhibition. A value of 0 means no net growth occurred over the course of the experiment. […]
Compounds without any hit were thinned out: in the full panel of roughly 83,000, 20% have a hit. The source made the active and inactive calls. How the source made its calls: active means growth percent below 10; inactive means the rest.
Classes used: active, inactive

{"columns": ["compound", "targetSystem", "labelValue"],
 "data": [
  ["O=C(Nn1c2c(sc1=NCc1ccccc1)C(=O)c1ccccc1C2=O)c1cc2ccc1CCc1ccc(cc1)CC2", "SF-539 CNS", "inactive"],
  ["COCCn1c(-c2csc(-c3cn(C)c4ccc(OC)cc34)n2)cc2cccnc21", "SF-539 CNS", "inactive"],
  ["CCN(CC)c1nc(SCc2ccccc2Cl)ncc1C", "SF-539 CNS", "inactive"],
  ["O=C(CCCCC1CCSS1)Nc1ncnc2n[nH]c(-c3ccc(Oc4ccccc4)cc3)c12 (stereo not given)", "SF-539 CNS", "inactive"],
  ["N#Cc1nn(-c2cc(=O)[nH]c3ccc(Cl)cc23)c(N)c1C#N", "SF-539 CNS", "inactive"],
  ["CC1=NN(c2nc(SCC(=O)Nc3nc4ccc(C)cc4s3)nc(-c3ccccc3)c2C#N)C(=O)C1", "SF-539 CNS", "inactive"],
  ["COc1cnc2c(c1)C(=O)c1c-2n(CCCNCCO)c(=O)c2ccncc12", "SF-539 CNS", "active"],
  ["O=[N+]([O-])c1ccc(S(=O)(=O)N2CCN(C3=NS(=O)(=O)c4ccccc4N3c3ccccc3)CC2)cc1", "SF-539 CNS", "inactive"],
  ["Cn1ccnc1C(=O)C(=O)Nc1ccc(CC(=O)Nc2ccccc2)cc1", "SF-539 CNS", "inactive"],
  ["S=C(Nc1ccc(-c2nc(N3CCOCC3)c3cccn3n2)cc1)Nc1cccnc1", "SF-539 CNS", "inactive"]
]}
